- statedConditions: in ethanol, 303.15 K
valueKind: solubility (mole fraction)
Please reply with the value in numeric form only.

(Q) # input compound: "O=[N+]([O-])/N=C1\NCCN1Cc1ccc(Cl)nc1" ; wanted: its solubility (mole fraction)
(A) 0.0009

====

- statedConditions: in methanol, 293.15 K
valueKind: solubility (mole fraction)
Response field accepts a number only; no unit should be typed.

(Q) Would you kindly share the measured solubility (mole fraction) for "O=[N+]([O-])/N=C1\NCCN1Cc1ccc(Cl)nc1" ?
(A) 0.0012

====

- statedConditions: in n-butanol, 313.15 K
valueKind: solubility (mole fraction)
Keep it simple and answer with nothing but the number.

(Q) Any idea what solubility (mole fraction) was measured for "O=[N+]([O-])/N=C1\NCCN1Cc1ccc(Cl)nc1" ?
(A) 0.001

====

- statedConditions: in methanol, 313.15 K
valueKind: solubility (mole fraction)
Keep the answer to the number alone.

(Q) # input compound: "O=[N+]([O-])/N=C1\NCCN1Cc1ccc(Cl)nc1" ; wanted: its solubility (mole fraction)
(A) 0.0027

====

- statedConditions: in ethyl acetate, 333.15 K
valueKind: solubility (mole fraction)
Lab note: write the figure by itself, no unit.

(Q) Which solubility (mole fraction) value belongs to "O=[N+]([O-])/N=C1\NCCN1Cc1ccc(Cl)nc1" ?
(A) 0.0084

====

- statedConditions: in ethyl acetate, 313.15 K
valueKind: solubility (mole fraction)

(Q) Look at this compound and give its reported solubility (mole fraction). "O=[N+]([O-])/N=C1\NCCN1Cc1ccc(Cl)nc1"
(A) 0.0044

====

- statedConditions: in ethanol, 328.15 K
valueKind: solubility (mole fraction)
# respond with the number and nothing more

(Q) Endpoint output: solubility (mole fraction) of "O=[N+]([O-])/N=C1\NCCN1Cc1ccc(Cl)nc1" . Value?
(A) 0.003

====

- statedConditions: in n-butyl acetate, 313.15 K
valueKind: solubility (mole fraction)
The answer should be written as a number, with no unit following it.

(Q) Consider the compound shown here: "O=[N+]([O-])/N=C1\NCCN1Cc1ccc(Cl)nc1" What is its recorded solubility (mole fraction)?
(A) 0.0032

====

- statedConditions: in n-butyl acetate, 333.15 K
valueKind: solubility (mole fraction)
// return a plain number; no unit text

(Q) Give its solubility (mole fraction) value. Item: "O=[N+]([O-])/N=C1\NCCN1Cc1ccc(Cl)nc1"
(A) 0.0048

====

- statedConditions: in n-butanol, 333.15 K
valueKind: solubility (mole fraction)

(Q) Which solubility (mole fraction) is reported for this compound? "O=[N+]([O-])/N=C1\NCCN1Cc1ccc(Cl)nc1"
(A) 0.0026

====

- statedConditions: in methanol, 298.15 K
valueKind: solubility (mole fraction)

(Q) Which solubility (mole fraction) reading was recorded for the compound "O=[N+]([O-])/N=C1\NCCN1Cc1ccc(Cl)nc1" ?
(A) 0.0015

====

- statedConditions: in n-butanol, 293.15 K
valueKind: solubility (mole fraction)

(Q) What value of solubility (mole fraction) has been recorded for this entry: "O=[N+]([O-])/N=C1\NCCN1Cc1ccc(Cl)nc1"
(A) 0.0004

====

- statedConditions: in n-propanol, 318.15 K
valueKind: solubility (mole fraction)
# output: bare number, no unit

(Q) Look up solubility (mole fraction) for this molecule: "O=[N+]([O-])/N=C1\NCCN1Cc1ccc(Cl)nc1"
(A) 0.0017

====

- statedConditions: in n-butanol, 303.15 K
valueKind: solubility (mole fraction)

(Q) I am curious: what solubility (mole fraction) value has been reported for "O=[N+]([O-])/N=C1\NCCN1Cc1ccc(Cl)nc1" ?
(A) 0.0006

====

- statedConditions: in n-butyl acetate, 318.15 K
valueKind: solubility (mole fraction)
Reply with just the number.

(Q) Could you tell me which solubility (mole fraction) is on file for "O=[N+]([O-])/N=C1\NCCN1Cc1ccc(Cl)nc1" ?
(A) 0.0035

====

- statedConditions: in ethanol, 323.15 K
valueKind: solubility (mole fraction)
Enter a number only.

(Q) Find the recorded solubility (mole fraction) belonging to "O=[N+]([O-])/N=C1\NCCN1Cc1ccc(Cl)nc1" and report it.
(A) 0.0025

====

- statedConditions: in n-propanol, 308.15 K
valueKind: solubility (mole fraction)

(Q) May I ask what solubility (mole fraction) has been recorded for "O=[N+]([O-])/N=C1\NCCN1Cc1ccc(Cl)nc1" ?
(A) 0.0011

====

- statedConditions: in methyl acetate, 298.15 K
valueKind: solubility (mole fraction)

(Q) Can you look up the measured solubility (mole fraction) of "O=[N+]([O-])/N=C1\NCCN1Cc1ccc(Cl)nc1" for me?
(A) 0.0042

====

- statedConditions: in methanol, 318.15 K
valueKind: solubility (mole fraction)

(Q) For the molecule shown here, "O=[N+]([O-])/N=C1\NCCN1Cc1ccc(Cl)nc1" , give the reported solubility (mole fraction).
(A) 0.0036

====

- statedConditions: in methyl acetate, 323.15 K
valueKind: solubility (mole fraction)
No unit in the answer, only the number.

(Q) Which solubility (mole fraction) value is on record for "O=[N+]([O-])/N=C1\NCCN1Cc1ccc(Cl)nc1" ?
(A) 0.0092

====

- statedConditions: in n-butyl acetate, 308.15 K
valueKind: solubility (mole fraction)
Field format: numeric only.

(Q) Fill in: solubility (mole fraction) of "O=[N+]([O-])/N=C1\NCCN1Cc1ccc(Cl)nc1" is ___
(A) 0.0027

====

- statedConditions: in n-propanol, 303.15 K
valueKind: solubility (mole fraction)
// response body must contain only the number

(Q) So what's the measured solubility (mole fraction) for this one? "O=[N+]([O-])/N=C1\NCCN1Cc1ccc(Cl)nc1"
(A) 0.0008

====

- statedConditions: in ethyl acetate, 318.15 K
valueKind: solubility (mole fraction)
Note: the reply should be a number with no unit written.

(Q) What value of solubility (mole fraction) has been reported for the following compound? "O=[N+]([O-])/N=C1\NCCN1Cc1ccc(Cl)nc1"
(A) 0.0053

====

- statedConditions: in n-butanol, 328.15 K
valueKind: solubility (mole fraction)
Please reply with the number alone, leaving off any unit.

(Q) Consider the compound shown here: "O=[N+]([O-])/N=C1\NCCN1Cc1ccc(Cl)nc1" What is its recorded solubility (mole fraction)?
(A) 0.0021

====

- statedConditions: in methyl acetate, 328.15 K
valueKind: solubility (mole fraction)
Returns: the value as a bare number; no unit string appended.

(Q) Given the entry "O=[N+]([O-])/N=C1\NCCN1Cc1ccc(Cl)nc1" , report its measured solubility (mole fraction).
(A) 0.0107

====

- statedConditions: in n-propanol, 328.15 K
valueKind: solubility (mole fraction)
# output: bare number, no unit

(Q) Name the recorded solubility (mole fraction) for "O=[N+]([O-])/N=C1\NCCN1Cc1ccc(Cl)nc1" .
(A) 0.0028

====

- statedConditions: in n-butyl acetate, 303.15 K
valueKind: solubility (mole fraction)
// return a plain number; no unit text

(Q) Entry "O=[N+]([O-])/N=C1\NCCN1Cc1ccc(Cl)nc1" has what solubility (mole fraction)?
(A) 0.0021

====

- statedConditions: in ethanol, 333.15 K
valueKind: solubility (mole fraction)
Answer with the value's number alone.

(Q) # query: solubility (mole fraction) of entry "O=[N+]([O-])/N=C1\NCCN1Cc1ccc(Cl)nc1"
(A) 0.0036

====

- statedConditions: in ethyl acetate, 298.15 K
valueKind: solubility (mole fraction)
Form field (numeric): enter value without unit.

(Q) Which solubility (mole fraction) is listed for "O=[N+]([O-])/N=C1\NCCN1Cc1ccc(Cl)nc1" ?
(A) 0.0029

====

- statedConditions: in n-butyl acetate, 328.15 K
valueKind: solubility (mole fraction)
Returns: the value as a bare number; no unit string appended.

(Q) Any idea what its solubility (mole fraction) is? The compound is "O=[N+]([O-])/N=C1\NCCN1Cc1ccc(Cl)nc1"
(A) 0.0041

====

- statedConditions: in ethyl acetate, 293.15 K
valueKind: solubility (mole fraction)

(Q) # solubility (mole fraction) lookup, item "O=[N+]([O-])/N=C1\NCCN1Cc1ccc(Cl)nc1"
(A) 0.0027

====

- statedConditions: in methyl acetate, 308.15 K
valueKind: solubility (mole fraction)
Give a plain numeric answer without units written out.

(Q) # solubility (mole fraction) lookup, item "O=[N+]([O-])/N=C1\NCCN1Cc1ccc(Cl)nc1"
(A) 0.0057

====

- statedConditions: in methyl acetate, 318.15 K
valueKind: solubility (mole fraction)
Just the number, please, no unit after it.

(Q) Suppose we examine the molecule "O=[N+]([O-])/N=C1\NCCN1Cc1ccc(Cl)nc1" ; what solubility (mole fraction) value has been reported?
(A) 0.0078

====

- statedConditions: in n-butanol, 308.15 K
valueKind: solubility (mole fraction)
Form field (numeric): enter value without unit.

(Q) Item "O=[N+]([O-])/N=C1\NCCN1Cc1ccc(Cl)nc1" has what recorded solubility (mole fraction)?
(A) 0.0008

src = BigSolDB 2.1
